Cited source for all entries: ChEMBL document CHEMBL5370613

METHOD_SUMMARY: Oral bioavailability in female CD-1 mouse at 5 mg/kg measured for 480 mins by LC-MS/MS analysis
Type: ADME, organism-based
TEST_SETTINGS: in vivo
OBSERVED_PROPERTY: bioavailability (%)
Report only the number, with the unit % understood.

[ask] Entry under review: C#C[C@H](O)C#Cc1ccc(CCCCCCCC)cc1 . Reported bioavailability?
[reply] 3.3

* * *

METHOD_SUMMARY: Clearance in female CD-1 mouse at 5 mg/kg, ip measured for 480 mins by LC-MS/MS analysis
Assay type: ADME, organism-based
TEST_SETTINGS: in vivo
OBSERVED_PROPERTY: CL/F (mL/min/kg)
Report only the number, with the unit mL/min/kg understood.

[ask] Entry under review: C#C[C@H](O)C#Cc1ccc(CCCCCCCC)cc1 . Reported CL/F?
[reply] 414
